EXPERIMENTAL SYSTEM: p38 MAP kinase (Homo sapiens, UniProt Q16539)
Sequence (Q16539 whole entry): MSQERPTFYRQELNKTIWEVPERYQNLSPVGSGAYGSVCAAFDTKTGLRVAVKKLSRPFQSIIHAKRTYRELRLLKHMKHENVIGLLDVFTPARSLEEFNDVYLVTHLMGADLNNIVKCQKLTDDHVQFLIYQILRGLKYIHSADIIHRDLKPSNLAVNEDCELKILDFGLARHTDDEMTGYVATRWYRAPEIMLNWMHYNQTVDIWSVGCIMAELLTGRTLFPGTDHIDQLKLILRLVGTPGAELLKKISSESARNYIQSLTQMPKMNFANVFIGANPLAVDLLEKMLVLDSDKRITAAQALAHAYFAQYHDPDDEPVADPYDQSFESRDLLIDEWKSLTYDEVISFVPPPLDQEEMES
ASSAY NOTES: p38 (MAP) kinase in vitro assay, transfer of γ-33P-phosphate from ATP to Myelin Basic Protein
TEST PARAMETERS: phosphorylated recombinant p38 MAP kinase, MBP substrate, γ-33P-ATP, 30° C.
METRIC: pIC50
pIC50 is defined as minus the log10 of a concentration measured in mol/L.

Ask | Give pIC50 for `OC[C@@H](O)CNc1nc(Oc2ccc(F)cc2F)nc2[nH]nc(-c3ccccc3Cl)c12`
Reply | 8.40

----------
A collection of compounds and their measured melting point

A selection of reference data follows.
COMPOUND	melting point
C[C@H](O)CNc1nc(Oc2ccc(F)cc2F)cc2[nH]nc(-c3ccccc3Cl)c12 [Example 9]	171.2 to 172 °C
C[C@H](O)CNc1nc(Oc2ccc(F)cc2F)nc2[nH]nc(-c3ccccc3Cl)c12 [Example 1]	254.6 to 258.2 °C
OC[C@H](O)COc1nc(Oc2ccc(F)cc2F)nc2[nH]nc(-c3ccccc3Cl)c12 [Example 5]	179.2 to 181.3 °C

Kindly review the next compound as well.
Ask | Return melting point (reported value) for this compound: C[C@H](O)CNc1cc(Oc2ccc(F)cc2F)nc2[nH]nc(-c3ccccc3Cl)c12 [Example 10]
Reply | 237.9 to 238.5 °C
